test system: Escherichia coli TOP10; assay: shrunken log2 fold change of peptide-encoding DNA abundance (4.5 h post-induction vs induction); higher = less antimicrobial activity (less host growth inhibition); details: time post-induction: 4.5 h; library: site-saturation at positions 5, 18, 19, 20
Mark f for shrunken log2 fold change values under -0.1, and t for everything at or above.

The following sequences have reported results that may help.
>>> df
            residue_string  classification
0  RRIRHRPPRLPRPRPRPRAGPRP               t
1  RRIRKRPPRLPRPRPRPTLHPRP               t
2  RRIRHRPPRLPRPRPRPASLPRP               t
3  RRIRTRPPRLPRPRPRPLVSPRP               t
4  RRIRKRPPRLPRPRPRPYMAPRP               t
5  RRIRFRPPRLPRPRPRPFVDPRP               f

INPUT: Please indicate if the recorded shrunken log2 fold change for RRIRLRPPRLPRPRPRPSTCPRP meets or exceeds -0.1.
OUTPUT: f

INPUT: Another sequence to look at: RRIRTRPPRLPRPRPRPDFEPRP
OUTPUT: t

INPUT: Continue with RRIRFRPPRLPRPRPRPPDMPRP
OUTPUT: f

INPUT: Try this sequence next: RRIRFRPPRLPRPRPRPQFVPRP
OUTPUT: f

INPUT: Further, for RRIRKRPPRLPRPRPRPCIEPRP ?
OUTPUT: t

INPUT: One more sequence: RRIRERPPRLPRPRPRPKPEPRP
OUTPUT: t

INPUT: How about this sequence: RRIRERPPRLPRPRPRPVGSPRP
OUTPUT: f

INPUT: Further, for RRIRVRPPRLPRPRPRPMIHPRP ?
OUTPUT: f

INPUT: Moving on to RRIRKRPPRLPRPRPRPLFRPRP
OUTPUT: t

###

test system: Escherichia coli TOP10; experiment: shrunken log2 fold change of peptide-encoding DNA abundance (4.5 h post-induction vs induction); higher = less antimicrobial activity (less host growth inhibition); conditions: time post-induction: 4.5 h; library: site-saturation at positions 5, 18, 19, 20
Quick rule for you: shrunken log2 fold change at -0.01 or higher means 1, lower means -1.

# count of solved cases: 5
In [3]: df
Out[3]:
            residue_string  classification
0  RRIRMRPPRLPRPRPRPMHYPRP              -1
1  RRIRSRPPRLPRPRPRPSANPRP              -1
2  RRIRKRPPRLPRPRPRPLTHPRP               1
3  RRIRRRPPRLPRPRPRPPMYPRP               1
4  RRIRPRPPRLPRPRPRPAMKPRP               1

--- query ---
INPUT: Check the entry RRIRLRPPRLPRPRPRPSALPRP : does shrunken log2 fold change equal or exceed -0.01?
OUTPUT: -1

###

tested on: Escherichia coli TOP10; test: shrunken log2 fold change of peptide-encoding DNA abundance (4.5 h post-induction vs induction); higher = less antimicrobial activity (less host growth inhibition); conditions: time post-induction: 4.5 h; library: site-saturation at positions 5, 18, 19, 20
The following sequences are shown together with reported shrunken log2 fold change values.
Enter a number only.

Sample records with shrunken log2 fold change:
>>> df
            residue_string                   property  recorded_measurement
0  RRIRRRPPRLPRPRPRPFQIPRP  shrunken log2 fold change                -0.325
1  RRIRDRPPRLPRPRPRPERHPRP  shrunken log2 fold change                  1.06
2  RRIRQRPPRLPRPRPRPLKNPRP  shrunken log2 fold change                -0.237
3  RRIRCRPPRLPRPRPRPCMSPRP  shrunken log2 fold change                -0.185
4  RRIRARPPRLPRPRPRPICDPRP  shrunken log2 fold change                 0.497

INPUT: Would you mind telling me what shrunken log2 fold change value was observed for RRIRCRPPRLPRPRPRPCCWPRP ?
OUTPUT: 0.103

INPUT: Now try RRIRSRPPRLPRPRPRPYSIPRP .
OUTPUT: -0.376

INPUT: Okay, and RRIRPRPPRLPRPRPRPCVAPRP ?
OUTPUT: 0.51

###

test system: Escherichia coli TOP10; assay: shrunken log2 fold change of peptide-encoding DNA abundance (4.5 h post-induction vs induction); higher = less antimicrobial activity (less host growth inhibition); details: time post-induction: 4.5 h; library: site-saturation at positions 5, 18, 19, 20
Decision: shrunken log2 fold change compared against 0.007; not below it gives 1, below it gives 0.

Some solved entries appear below for comparison.
>>> print(df.to_string())
            residue_string          assayed_system  classification
0  RRIRKRPPRLPRPRPRPMAGPRP  Escherichia coli TOP10               1
1  RRIRERPPRLPRPRPRPPLRPRP  Escherichia coli TOP10               1

INPUT: Does shrunken log2 fold change meet or surpass 0.007 for RRIRIRPPRLPRPRPRPHDMPRP ?
OUTPUT: 0

INPUT: Quick one: RRIRARPPRLPRPRPRPVMSPRP
OUTPUT: 1

INPUT: Here is the next sequence: RRIRFRPPRLPRPRPRPRFCPRP
OUTPUT: 0

INPUT: How about RRIRKRPPRLPRPRPRPRGSPRP ?
OUTPUT: 1

###

tested on: Escherichia coli TOP10; experiment: shrunken log2 fold change of peptide-encoding DNA abundance (4.5 h post-induction vs induction); higher = less antimicrobial activity (less host growth inhibition); settings: time post-induction: 4.5 h; library: site-saturation at positions 5, 18, 19, 20
The threshold is inclusive: shrunken log2 fold change of exactly -0.2 counts as YES; values below receive NO.

>>> df
            residue_string  classification
0  RRIRVRPPRLPRPRPRPCCRPRP             YES
1  RRIRQRPPRLPRPRPRPRYIPRP              NO
2  RRIRRRPPRLPRPRPRPWPMPRP             YES
3  RRIRYRPPRLPRPRPRPCGHPRP             YES
4  RRIRVRPPRLPRPRPRPMVNPRP             YES

INPUT: Hello, I need to know if RRIRSRPPRLPRPRPRPHCDPRP has measured shrunken log2 fold change not below -0.2. Thanks!
OUTPUT: NO

INPUT: Request: RRIRRRPPRLPRPRPRPRYAPRP
OUTPUT: YES

INPUT: Next entry: RRIRCRPPRLPRPRPRPMAYPRP
OUTPUT: YES

INPUT: Do the same for RRIRHRPPRLPRPRPRPVCTPRP please
OUTPUT: YES

INPUT: Next record, please: RRIRIRPPRLPRPRPRPYHDPRP
OUTPUT: NO

INPUT: What do we get for RRIRKRPPRLPRPRPRPAIDPRP ?
OUTPUT: YES

INPUT: Now the sequence RRIRMRPPRLPRPRPRPYMPPRP
OUTPUT: NO

INPUT: What about this sequence? RRIRMRPPRLPRPRPRPYMDPRP
OUTPUT: YES

INPUT: Please do the same for RRIRWRPPRLPRPRPRPGEVPRP as well.
OUTPUT: YES

INPUT: Request: RRIRKRPPRLPRPRPRPWRGPRP
OUTPUT: YES

###

tested on: Escherichia coli TOP10; experiment: shrunken log2 fold change of peptide-encoding DNA abundance (4.5 h post-induction vs induction); higher = less antimicrobial activity (less host growth inhibition); details: time post-induction: 4.5 h; library: site-saturation at positions 5, 18, 19, 20;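 further: peptides expressed intracellularly from a pBAD plasmid library in pooled LB shake-flask culture, induced with 0.3% L-arabinose, DNA abundance read by NGS, three biological replicates, DESeq2 with apeglm shrinkage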
Parameter shrunken log2 fold change: see the listing below.

Look over these answered cases.
            residue_string  recorded_measurement
0  RRIRPRPPRLPRPRPRPAQMPRP                 0.181
1  RRIRHRPPRLPRPRPRPQAGPRP               -0.0176
2  RRIRMRPPRLPRPRPRPHCQPRP               -0.0624
3  RRIRFRPPRLPRPRPRPKEHPRP                -0.357
4  RRIRARPPRLPRPRPRPSYLPRP                -0.716
5  RRIRKRPPRLPRPRPRPDPYPRP               -0.0561
6  RRIRGRPPRLPRPRPRPTICPRP                 0.601
7  RRIRIRPPRLPRPRPRPRVNPRP                -0.603

INPUT: Could you tell me which shrunken log2 fold change is on file for RRIRTRPPRLPRPRPRPGLIPRP ?
OUTPUT: -1.04

Where do these numbers come from? They come from the supplement of paper PMC9112550.
